- SUBJECT OF TEST: ZW10 (UniProt O43264)
- Sequence (O43264 whole entry, looked up): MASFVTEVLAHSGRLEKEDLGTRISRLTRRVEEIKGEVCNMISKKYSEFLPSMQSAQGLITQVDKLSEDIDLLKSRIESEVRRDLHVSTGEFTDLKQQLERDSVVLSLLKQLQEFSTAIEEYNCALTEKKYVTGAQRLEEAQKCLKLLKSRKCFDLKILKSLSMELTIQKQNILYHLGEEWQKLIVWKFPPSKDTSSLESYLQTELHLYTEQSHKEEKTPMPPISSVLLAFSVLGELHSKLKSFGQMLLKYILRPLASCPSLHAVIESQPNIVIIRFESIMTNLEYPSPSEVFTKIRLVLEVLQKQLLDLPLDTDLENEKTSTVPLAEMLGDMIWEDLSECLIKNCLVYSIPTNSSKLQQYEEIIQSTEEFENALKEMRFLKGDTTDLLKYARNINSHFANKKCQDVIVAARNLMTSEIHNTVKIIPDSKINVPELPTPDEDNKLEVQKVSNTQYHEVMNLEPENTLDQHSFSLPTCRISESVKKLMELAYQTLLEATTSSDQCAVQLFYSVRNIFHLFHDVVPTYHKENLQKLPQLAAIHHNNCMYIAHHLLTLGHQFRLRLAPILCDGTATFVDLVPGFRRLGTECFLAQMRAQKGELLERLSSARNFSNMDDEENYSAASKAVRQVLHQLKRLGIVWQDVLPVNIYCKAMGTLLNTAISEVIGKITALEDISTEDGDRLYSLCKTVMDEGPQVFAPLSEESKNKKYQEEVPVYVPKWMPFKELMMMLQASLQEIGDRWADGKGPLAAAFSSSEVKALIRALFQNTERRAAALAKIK
- ASSAY DETAILS: log2 fold change, soluble protein after heating vs DMSO (PISA); higher = thermal stabilisation; K562 cells, 10 uM, 30 min; active = over 0.2 and 3.5 SD of the protein, either way, in both replicates (recomputed)
Of roughly 7,900 targets only a part is listed; those with a hit were picked by preference. About 0.6% of all pairs of compound and target were hits.
Listed below: log2 fold change values for each entry.
Please state the value as a number alone, without comment.

Below are worked cases with known answers.
[[record]]
molecule_smiles = "CNC(=O)c1ccc(Nc2ncc(C(F)(F)F)c(NCc3nccnc3N(C)S(C)(=O)=O)n2)cc1"
subject_of_test = "ZW10 (UniProt O43264)"
data_value = -0.083

[[record]]
molecule_smiles = "CCCS(=O)(=O)Nc1ccc(F)c(C(=O)c2c[nH]c3ncc(Cl)cc23)c1F"
subject_of_test = "ZW10 (UniProt O43264)"
data_value = 0.053

[[record]]
molecule_smiles = "CON(C)C(=O)N1N=C(c2cc(F)ccc2F)S[C@@]1(CCCN)c1ccccc1"
subject_of_test = "ZW10 (UniProt O43264)"
data_value = 0.052


Return reported log2 fold change; argument: `Cn1cc(-c2ccc3c(c2)CCN3C(=O)Cc2cccc(C(F)(F)F)c2)c2c(N)ncnc21`
-0.076

Which log2 fold change value is on record for `O=C(CCCCCCNC(=O)c1cnc(N(c2ccccc2)c2ccccc2Cl)nc1)NO` ?
0.033

Can you look up the measured log2 fold change of `COC(=O)[C@H](CCSC)NC(=O)c1ccc(NC[C@@H](N)CS)cc1-c1ccccc1` for me?
-0.079

Item `C[C@H](Nc1ncnc2nc[nH]c12)c1cc2cccc(Cl)c2c(=O)n1-c1ccccc1` has what recorded log2 fold change?
-0.002

Requested read-out: log2 fold change. Entry: `Cc1ncc(-c2ccnc(Nc3ccc(S(C)(=O)=O)cc3)n2)n1C(C)C`
0

Please report the recorded log2 fold change for `Fc1ccc(Cl)cc1-c1nc(Nc2ccncc2)c2nccnc2n1` .
-0.04

---

Reported log2 fold change values are given for each entry in this list.
- SUBJECT OF TEST: ZFPL1 (UniProt O95159)
- Sequence (O95159 whole entry, looked up): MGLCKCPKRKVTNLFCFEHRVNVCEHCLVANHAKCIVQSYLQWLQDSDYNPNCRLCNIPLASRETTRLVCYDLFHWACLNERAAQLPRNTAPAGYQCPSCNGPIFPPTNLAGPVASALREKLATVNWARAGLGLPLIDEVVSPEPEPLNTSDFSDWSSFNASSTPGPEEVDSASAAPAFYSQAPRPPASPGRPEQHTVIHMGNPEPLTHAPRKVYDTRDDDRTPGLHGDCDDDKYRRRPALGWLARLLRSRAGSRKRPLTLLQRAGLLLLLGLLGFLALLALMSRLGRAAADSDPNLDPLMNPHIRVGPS
- ASSAY DETAILS: log2 fold change, soluble protein after heating vs DMSO (PISA); higher = thermal stabilisation; K562 cells, 10 uM, 30 min; active = over 0.2 and 3.5 SD of the protein, either way, in both replicates (recomputed)
Of roughly 7,900 targets only a part is listed; those with a hit were picked by preference. About 0.6% of all pairs of compound and target were hits.

[[record]]
molecule_smiles = "CNC(=O)c1ccccc1Nc1nc(Nc2ccc(N3CCOCC3)cc2OC)ncc1Cl"
data_value = "0.061 (inactive)"

[[record]]
molecule_smiles = "Cn1cc(-c2ccc3nnc(C(F)(F)c4ccc5ncccc5c4)n3n2)cn1"
data_value = "-0.03 (inactive)"

[[record]]
molecule_smiles = "Cc1ccc2c(=O)c3ccccc3n(CCCN)c2c1C"
data_value = "0.079 (inactive)"

[[record]]
molecule_smiles = "CN1CCN(c2nc(C3=C(c4c[nH]c5ccccc45)C(=O)NC3=O)c3ccccc3n2)CC1"
data_value = "0.003 (inactive)"

[[record]]
molecule_smiles = "c1cc(OCCN2CCCCC2)cc(-c2n[nH]c3ccc(-c4nnc[nH]4)cc23)c1"
data_value = "0.008 (inactive)"


What does the record list as log2 fold change for `Cc1cccc(-c2[nH]c(C(C)(C)C)nc2-c2ccc3nccnc3c2)n1` ?
0.032 (inactive)

State the recorded log2 fold change for this entry: `CC[C@@H]1C(=O)N(C)c2cnc(Nc3ccc(C(=O)N[C@H]4CC[C@H](N5CCN(CC6CC6)CC5)CC4)cc3OC)nc2N1C(C)C`
-0.088 (inactive)

Which log2 fold change value is on record for `COc1cc2ncnc(Nc3ccc(F)c(Cl)c3)c2cc1OCCCN1CCOCC1` ?
0.065 (inactive)

I have this molecule here, `CCCCN(Cc1ccc(C(=O)NO)cc1)C(=O)Nc1ccccc1` , and I need its recorded log2 fold change.
-0.064 (inactive)

Would you mind telling me what log2 fold change value was observed for `CCCS(=O)(=O)Nc1ccc(F)c(C(=O)c2c[nH]c3ncc(-c4ccc(Cl)cc4)cc23)c1F` ?
0.021 (inactive)

What does the data say about its log2 fold change? Entry: `CC(=O)c1cnc2ccc(-c3cc(Cl)c(O)c(Cl)c3)nc2c1N[C@H]1CC[C@H](CN(C)C)CC1`
0.023 (inactive)

Dear colleague, I am looking for the recorded log2 fold change of the following molecule: `Nc1ccccc1NC(=O)c1ccc(CNC(=O)OCc2cccnc2)cc1`
-0.03 (inactive)

Which log2 fold change reading was recorded for the molecule `CN1CCC(CNc2ccc3ncc(-c4cccc(OC(F)(F)F)c4)n3n2)CC1` ?
-0.085 (inactive)

Requested field: log2 fold change. Item: `CCCS(=O)(=O)Nc1ccc(F)c(C(=O)c2c[nH]c3ncc(Cl)cc23)c1F`
0.006 (inactive)

Recorded log2 fold change of `C=CC(=O)N1CCC[C@@H](n2nc(-c3ccc(Oc4ccccc4)cc3)c3c(N)ncnc32)C1` , please.
0.087 (inactive)

Please give the measured log2 fold change for this molecule: `C[C@@H]1COCCN1c1cc(C2(S(C)(=O)=O)CC2)nc(-c2cccc3[nH]ccc23)n1`
-0.056 (inactive)

Which log2 fold change value is on record for `CC(C)c1cnn2c(NCc3ccccc3)cc(NCCCCCCN)nc12` ?
0.146 (inactive)

Query (molecule): `COc1ccc(Cn2ccc3ccc(C(=O)NO)cc32)cc1` ; field requested: log2 fold change
0.074 (inactive)
